Molecular target: COX-2 (Homo sapiens)
Construct: purchased Abcam, UK
Sequence (P35354 18-604): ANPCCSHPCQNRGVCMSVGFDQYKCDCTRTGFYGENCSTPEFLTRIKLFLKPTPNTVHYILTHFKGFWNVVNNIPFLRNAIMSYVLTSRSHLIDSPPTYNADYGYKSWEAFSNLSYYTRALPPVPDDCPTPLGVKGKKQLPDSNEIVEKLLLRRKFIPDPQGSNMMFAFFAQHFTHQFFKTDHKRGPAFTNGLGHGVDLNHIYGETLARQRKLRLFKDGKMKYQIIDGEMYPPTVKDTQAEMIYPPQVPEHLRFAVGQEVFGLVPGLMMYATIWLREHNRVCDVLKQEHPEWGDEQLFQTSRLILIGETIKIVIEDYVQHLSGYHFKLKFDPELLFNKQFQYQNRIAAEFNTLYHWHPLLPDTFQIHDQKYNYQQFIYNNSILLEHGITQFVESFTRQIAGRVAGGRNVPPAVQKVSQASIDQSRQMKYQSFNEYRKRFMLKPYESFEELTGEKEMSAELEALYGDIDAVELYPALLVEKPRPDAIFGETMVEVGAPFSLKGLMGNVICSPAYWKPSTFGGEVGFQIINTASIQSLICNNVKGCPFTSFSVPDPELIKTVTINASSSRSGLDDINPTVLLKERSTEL
Experiment: Fluorometric COX-2 inhibitor screening kit
Type: biochemical
Conditions: at 10 µM; mean ± standard error of two measurements; read-out: COX-2 Percent of Inhibition
Recorded measurements of inhibition at 10 µM, one per entry
Readout name: inhibition at 10 µM (%)

COc1ccc2cc([C@H](C)C(=O)NC(=S)Nc3ccc(F)cc3)ccc2c1 [Compound 1] | 24.7
COc1ccc2cc([C@H](C)C(=O)NC(=S)Nc3ccc(C(C)=O)cc3)ccc2c1 [Compound 5] | 19.6
COc1ccc(NC(=S)NC(=O)[C@@H](C)c2ccc3cc(OC)ccc3c2)cc1 [Compound 2] | 18.8

meta.source: paper PMC10222328
